protocolSummary: probe aDKK1 binding to arrayed compounds – biochemical, biotinylated probe, 635/667 nm fluorescence, primary screen (AID 1099);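 note: score merges 667nm spot fluorescence with signal to noise across triplicate slides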
cond: small-molecule microarray, higher = more signal

# compound, composite z-score
records = [
    ("O=C1O[C@@H](c2ccccc2)[C@@H](c2ccccc2)N2[C@@H](c3ccccc3OCCO)[C@]3(C(=O)Nc4ccc(C#CCCO)cc43)[C@@H](C(=O)NC[C@H](O)c3ccccc3)[C@H]12", 1.93),
    ("C=CCN1C(=O)[C@]2(O[C@H](CCn3cc([C@H](O)c4ccccc4)nn3)[C@@H]([Si](C)(C)c3ccc(OC)cc3)[C@@H]2C)c2cc(NC(=O)c3ccc(OC)cc3)ccc21", -0.125),
    ("C=C(C)[C@@H]1CC=C(C(O)C2C=CC3C(=O)N(C)C(=O)C3N2Nc2ccc([N+](=O)[O-])cc2[N+](=O)[O-])CC1 (stereo partly drawn)", 0.989),
]

---

protocolSummary: forskolin-driven CRE-LacZ activity in PC12 – cell-based, CRE-LacZ reporter, forskolin-stimulated, primary screen (AID 1146);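 note: PC12 cells with 6xCRE LacZ reporter stimulated by forskolin 10 µM; beta-galactosidase reporter signal reflecting CREB driven transcription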
cond: luminescence, 4.5 h, higher = more signal, called active from +8 up or from −8 down
Would you please tag the item 1 when its z-score is 0.7 or above, and -1 when it is below?

# molecule, classAssignment
data = [
    ("CCCCCC1=C2CNC(Cc3ccccc3)(C(=O)OC)C=C2C(C)C1=O (stereo not given)", 1),
    ("OCCCC1=CC(c2ccc(CN3CCCC3)cc2)N(Cc2cccc(OC(F)(F)F)c2)CC1 (stereo not given)", -1),
    ("CCCCN1CC=CC23O[C@@H]4/C=C\\CCCOC(=O)C4[C@H]2C(=O)N(C(CO)C(C)C)[C@@H]3C1=O (stereo not given in full)", -1),
    ("COCCn1c(C(=O)N(C)C)cc2c1C[C@H]1CN(C(=O)c3ccccc3)[C@@](Cc3ccc(OC)cc3)(C(=O)OC)[C@@H]21", -1),
    ("O=C1C2C=CC(C(O)c3cccs3)N(Nc3ccc([N+](=O)[O-])cc3)C2C(=O)N1c1ccccc1 (stereo not given)", -1),
    ("O=C1O[C@@H](c2ccccc2)[C@@H](c2ccccc2)N2[C@@H](c3ccc(OCCO)cc3)[C@]3(C(=O)Nc4ccc(C#CC5(O)CCCCCC5)cc43)[C@@H](C(=O)O)[C@H]12", -1),
    ("CN1C(=O)C2C=CC(C(O)c3ccc(-c4ccccc4)s3)N(NC(=O)OC(C)(C)C)C2C1=O (stereo not given)", -1),
    ("C=CCNC(=O)[C@H]1[C@@H]2C(=O)O[C@@H](c3ccccc3)[C@@H](c3ccccc3)N2[C@@H](c2ccc(OCCO)cc2)[C@]12C(=O)Nc1ccccc12", 1),
    ("COC(=O)C1(Cc2ccccc2)C=C2C(=C(C)C(=O)C2C)CN1 (stereo not given)", 1),
    ("CCOC(=O)C[C@H]1[C@H](OC(=O)c2ccccc2-c2ccccc2)[C@@H](NC(=O)c2ccc3ccccc3c2)c2cc(OCCCO)ccc2N1C(=O)Cc1ccc(OC)cc1", -1),
    ("C#CCN1[C@@H](Cc2ccccc2)C(=O)O[C@H](Cc2ccccc2)[C@@H]1/C=C/C1CC1", -1),
    ("C[N+](C)(C)CCCCNC(=O)[C@H]1C[C@H]2C(=O)N[C@@H](Cc3ccccc3)C(=O)N2[C@H]1c1cccc(OCCO)c1", -1),
    ("CCCCCCc1nc(Cc2cc(OC)c(OC)c(OC)c2)cc2c1[Si](C(C)C)(C(C)C)O[C@H]2c1ccccc1", -1),
    ("COC(=O)[C@@]1(Cc2ccc(F)cc2)[C@H]2c3cc(C(=O)N(C)C)n(CCc4ccc(O)c(O)c4)c3C[C@H]2CN1C(=O)c1ccccc1", 1),
    ("CO[C@H]1O[C@H](CO)[C@@H](OC(=O)Nc2ccc3c(c2)OCO3)[C@H](OC(=O)Nc2ccccc2-c2ccccc2)[C@H]1OC(=O)Nc1ccccc1-c1ccccc1", -1),
]

---

Listed here are compounds together with their documented z-score.
protocolSummary: resazurin metabolic signal in A549 cells – cell-based, resazurin fluorescence, 24 h, PK04 Diversity Set, profiling panel (AID 1171); note: test concentration not given here
cond: A549 viability, higher = more signal, called active from +8 up or from −8 down
attributeMeasured: z-score

# compound, attributeMeasured, endpointValue
rows = [
    ("C=CC[C@@]12N=C(c3ccc(OCCCO)cc3)O[C@@H]1c1ccccc1N(CCC)C2=O", "z-score", 0.0626),
    ("C=CCC(OC(C)=O)[C@@H]1[C@@H](N(Cc2ccc(-c3cccc(C(F)(F)F)c3)o2)C(=O)Cc2ccc(F)cc2)c2cc(OCCCO)ccc2N1C(=O)Cc1ccc2ccccc2c1 (some centres undefined)", "z-score", 0.623),
    ("COC(=O)[C@]1(CCC(=O)OC(C)(C)C)N=C(c2ccc(OCCCO)cc2)O[C@@H]1c1ccccc1N=[N+]=[N-]", "z-score", -1.46),
    ("C=C(COC)C(=O)CC[C@H](OC(=O)c1cccnc1)c1ccc(OCCO)cc1", "z-score", -0.552),
]

---

Listed here are compounds together with their documented z-score.
studyTarget: Luciferin 4-monooxygenase (Photinus pyralis)
protocolSummary: inhibition of purified Photinus pyralis luciferase – biochemical, luminescence, purified enzyme, 2006 set, primary screen (AID 1141);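 note: cell-free assay with purified firefly luciferase at 100 ng per well in PBS; test concentration not given here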
cond: purified firefly luciferase, SteadyGlo luminescence, 30 min; higher = more signal, called active from +8 up or from −8 down
attributeMeasured: z-score

# compound, endpointValue
records = [
    ("COCCCN1C(=O)[C@@]2(c3ccc([N+](=O)[O-])cc3)CC(=O)N(CC34CC5CC(CC(C5)C3)C4)[C@@H]2c2ccc(CO)cc21", -0.844),
    ("CN(C)c1ccc(C(O)C2C=CC3C(=O)N(Cc4ccccc4)C(=O)C3N2n2cnnc2)cc1 (configuration not stated)", -1.66),
    ("CC(C)(C)N1CC=CC23O[C@@H]4C=CCOC(=O)[C@@H]4[C@H]2C(=O)N(CCO)[C@@H]3C1=O (some centres not stated)", -0.387),
    ("CN(C)CCCNC(=O)[C@@]1(C)c2ccccc2C(=O)N(Cc2ccc(OC(F)(F)F)cc2)[C@H]1c1ccc(CO)cc1", 0.14),
    ("O=C1O[C@@H](c2ccccc2)[C@@H](c2ccccc2)N2[C@@H](c3ccccc3OCCO)[C@]3(C(=O)Nc4ccc(C#CCCO)cc43)[C@@H](C(=O)NC[C@H](O)c3ccccc3)[C@H]12", 0.808),
    ("C=CCN1Cc2ccccc2[C@H]2OC(c3ccc(OCCCO)cc3)=N[C@@]2(CCS(=O)(=O)c2ccccc2)C1=O", -0.884),
    ("NCCCCCCNC(=O)[C@@H]1C[C@@H]2C(=O)N3CCC[C@H]3C(=O)N2[C@@H]1c1cccc(OCCO)c1", -0.268),
]

---

protocolSummary: probe aNOTCH2 binding on compound microarray – biochemical, small-molecule microarray, 635/667 nm fluorescence, primary screen (AID 1121);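 note: score merges feature fluorescence read at 667 nm with its signal to noise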
cond: higher = more signal
Would you please tag the item condition met when its composite z-score is -0.09 or above, and condition not met when it is below?

# molecule, classAssignment
records = [
    ("CCCCCCc1nc(Cc2cc(OC)c(OC)c(OC)c2)cc2c1[Si](C(C)C)(C(C)C)O[C@H]2c1ccccc1", "condition not met"),
    ("CC(C)(C)N1CC=CC23O[C@@H]4/C=C\\CCCOC(=O)C4[C@H]2C(=O)N(CCCCCO)[C@@H]3C1=O (stereo partly drawn)", "condition not met"),
    ("COc1ccccc1CN1C(=O)c2ccccc2[C@](Cc2ccccc2I)(C(=O)NCC(C)C)[C@@H]1c1ccc(CO)cc1", "condition met"),
    ("COc1ccc(C(=O)Nc2ccc3c(c2)[C@@]2(O[C@H](CCO)[C@@H]([Si](C)(C)c4ccc(OC)cc4)[C@@H]2C)C(=O)N3Cc2ccccc2)cc1", "condition met"),
    ("N#Cc1ccc(-c2cccc(=O)o2)cc1", "condition not met"),
    ("O=C1C=C(c2ccccc2)C(=O)C2=C1CC([C@H]1Oc3ccccc3S(=O)(=O)N3CCC[C@@H]13)=CC2", "condition met"),
    ("O=C1[C@H]2C=C(I)[C@H](C[C@@H]2OCCCCCCO)[C@@]12CO2", "condition not met"),
]

---

studyTarget: Concanavalin-A (Canavalia ensiformis)
protocolSummary: compounds binding concanavalin A lectin – biochemical, small-molecule microarray, Alexa647 label, 635 nm, artefact control for SMM control protein annotation, primary screen (AID 1127);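 note: z combines 667 nm emission intensity with signal-to-noise across three replicate slides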
cond: ConA-A647 binding fluorescence, higher = more signal
Kindly note that classification relies on composite z-score with these boundaries: label 0 (below -0.1), label 1 (-0.1 to below 0.8), label 2 (0.8 or more)

# compound, classAssignment
records = [
    ("CCOc1cc(C(O)C2C=CC3C(=O)N(c4ccccc4)C(=O)C3N2Nc2ccccc2F)ccc1O (stereo not given)", "label 1"),
    ("CC(C)C(CO)N1C(=O)[C@@H]2C3C(=O)OCCC/C=C\\[C@H]3OC23C=CCN(Cc2ccccc2)C(=O)[C@@H]13 (stereo not given in full)", "label 0"),
    ("CCOC(=O)C[C@H]1[C@H](OC(=O)c2ccccc2-c2ccccc2)[C@@H](NC(=O)c2ccc3ccccc3c2)c2cc(OCCCO)ccc2N1C(=O)Cc1ccc(OC)cc1", "label 0"),
    ("CN(C)CCCNC(=O)[C@@H]1c2ccccc2C(=O)N(Cc2ccccc2C(F)(F)F)[C@H]1c1ccc(CO)cc1", "label 1"),
    ("CC(C)C[C@@H]1NC(=O)[C@@H]2C[C@H](C(=O)NCCCCCCNC(=O)CS)[C@H](c3cccc(OCCO)c3)N2C1=O", "label 2"),
    ("CC1CC/C=C\\[C@H]2OC34C=CCN(C(C)(C)C)C(=O)[C@H]3N(CCCO)C(=O)[C@@H]4C2C(=O)O1 (stereo not given in full)", "label 0"),
    ("C=C(COC)C(=O)CC[C@H](OC(=O)c1cccnc1)c1ccc(OCCO)cc1", "label 1"),
    ("O=C(NCC(O)CO)[C@@]1(CCS(=O)(=O)c2ccccc2)N=C(c2ccc(OCCCO)cc2)O[C@H]1c1ccccc1 (stereo not given in full)", "label 1"),
    ("CC(C)NC(=O)[C@@H]1c2ccccc2C(=O)N(Cc2ccccc2C(F)(F)F)[C@H]1c1ccc(CO)cc1", "label 0"),
    ("CC(C)C(=C=CC[C@H](O)c1ccccc1OCCO)C[C@H](O)COCc1ccccc1", "label 1"),
    ("CC1CC/C=C\\[C@H]2OC34C=CCN(c5ccc(Cl)cc5)C(=O)[C@H]3N(CCCCCCO)C(=O)[C@]4(C)C2C(=O)O1 (stereo not given in full)", "label 0"),
    ("COc1ccc([Si](C)(C)[C@H]2[C@H](CC(=O)N3CCC[C@H]3CO)O[C@@]3(C(=O)N(Cc4ccc(N5CCCCC5=O)cc4)c4ccccc43)[C@@H]2C)cc1", "label 2"),
    ("COC(=O)[C@@]1(Cc2ccccc2)[C@H]2c3cc(C(=O)N(C)C)n(CCO)c3C[C@H]2CN1C(=O)c1ccccc1", "label 2"),
    ("COc1cc(C(O)C2C=CC3C(=O)N(c4ccccc4)C(=O)C3N2Nc2ccccc2)cc(OC)c1OC (stereo not given)", "label 2"),
]
